System: U937 cells
Method Notes: Counter screen: cell viability without TSQ cocktail (off target effect)
Assay type: cell-based
Experimental Conditions: U937 without TSQ cocktail, compound at 1 uM
Procedure: In parallel, all compounds are tested for their ability to affect cell viability. The same U937 cells are treated with compound in DMSO without the TSQ cocktail. This counter screen enables evaluation of off-target effects. In this case gain, cell viability is measured by flow cytometry after PI staining.
Measured Endpoint: Off target effect (% cell death) at 1 uM (%)
Answers are plain numbers, in %.

[
  {
    "Structure Smiles": "CN(c1ccc(NC(=O)Nc2ccc(OC(F)(F)F)cc2)cc1)c1ccnc(Nc2cccc(CS(N)(=O)=O)c2)n1",
    "Tested On": "U937 cells",
    "Measurement": 20
  }
]

Provide Off target effect (% cell death) at 1 uM for all items below, preserving their order.
1. NS(=O)(=O)c1cccc(Nc2nccc(N(c3ccc(NC(=O)Nc4ccc(OC(F)(F)F)cc4)cc3)C3CC3)n2)c1
2. CN(C(=O)Nc1ccc(OC(F)(F)F)cc1)c1ccc(N(C)c2ccnc(Nc3cccc(S(N)(=O)=O)c3)n2)cc1
3. CN(c1ccc(NC(=O)Nc2ccccc2)cc1)c1ccnc(Nc2cccc(S(N)(=O)=O)c2)n1
4. CN(c1ccc(NC(=O)Nc2ccc(OC(F)(F)F)cc2)cc1)c1ccnc(Nc2cccc(CS(C)(=O)=O)c2)n1
5. Cc1ccc(Nc2nccc(N(C)c3ccc(NC(=O)Nc4ccc(OC(F)(F)F)cc4)cc3)n2)cc1C(=O)N(C)C

Solution:
21
41
23
20
30

For each of the molecules below, note its Off target effect (% cell death) at 1 uM.
1. CN(c1ccc(NC(=O)Nc2ccc(OC(F)(F)F)cc2)cc1)c1ccnc(Nc2ccc(F)c(S(N)(=O)=O)c2)n1
2. Cc1ccc(F)c(NC(=O)Nc2ccc(N(C)c3ccnc(Nc4cccc(S(N)(=O)=O)c4)n3)cc2)c1
3. CN(c1ccc(NC(=O)Nc2cc(C(F)(F)F)ccc2F)cc1)c1ccnc(Nc2cccc(S(N)(=O)=O)c2)n1
4. CN(c1ccc(CC(=O)Nc2ccc(OC(F)(F)F)cc2)cc1)c1ccnc(Nc2cccc(S(N)(=O)=O)c2)n1

Solution:
29
40
72
21

Exercise: Which Off target effect (% cell death) at 1 uM value is on record for COCCNS(=O)(=O)c1cccc(Nc2nccc(N(C)c3ccc(NC(=O)Nc4ccc(OC(F)(F)F)cc4)cc3)n2)c1 ?
Solution: 21

---

Tested on: wild type U937 cells
Method Notes: Cell death assay, TSQ-induced necroptosis in U937 cells (PI, flow cytometry)
Format: cell-based, human
Experimental Conditions: Homo sapiens, U-937; Table 1; U937 cells, TSQ-induced necroptosis; read-out: Inhibition of necroptosis (IC50)
Consider the following compounds; for each one, report its IC50.

[
  {
    "Compound": "CN(c1ccc(NC(=O)Nc2cc(C(F)(F)F)ccc2F)cc1)c1ccnc(Nc2cccc(S(N)(=O)=O)c2)n1 [Compound 3]",
    "Tested On": "wild type U937 cells",
    "IC50": "0.001 to 0.005 µM"
  }
]

# next compound below
Exercise: Field request: IC50 | item: CN(c1ccc(NC(=O)Nc2ccccc2)cc1)c1ccnc(Nc2cccc(S(N)(=O)=O)c2)n1 [Compound 2]
Solution: 0.4 to 0.8 µM

---

Tested On: mouse MLKL(179-464) pseudokinase domain (Mus musculus, UniProt Q9D2Y4)
Sequence (Q9D2Y4 179-464 isoform Q9D2Y4-2): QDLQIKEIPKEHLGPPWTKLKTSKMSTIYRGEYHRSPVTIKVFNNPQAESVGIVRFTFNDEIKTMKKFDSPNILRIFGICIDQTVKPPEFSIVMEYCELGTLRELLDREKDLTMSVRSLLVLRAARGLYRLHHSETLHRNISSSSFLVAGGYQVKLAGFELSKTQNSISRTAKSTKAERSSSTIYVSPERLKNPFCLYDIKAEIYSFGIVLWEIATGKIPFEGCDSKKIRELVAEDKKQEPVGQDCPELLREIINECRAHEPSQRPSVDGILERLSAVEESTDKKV
Method Notes: Surface Plasmon Resonance (SPR) binding, mouse MLKL
Method: Double His-tagged MLKL and an unrelated negative control reference protein were immobilized on an NTA Capture chip charged with Ni^2+ according to manufacturer's instructions. […] Binding experiments were carried out in Running Buffer+2% v/v DMSO. […] Data were fit globally to a two state kinetic interaction model and the Kd determined from the (kd/ka) ratio. […]
Measured Endpoint: pKd
One number for each entry, as −log10 of the molar value.

Exercise: Value lookup for pKd; key = CN(c1ccc(NC(=O)Nc2ccc(OC(F)(F)F)cc2)cc1)c1ccnc(Nc2cccc(S(N)(=O)=O)c2)n1
Solution: 5.03
